Data provenance is paper PMC6757420.

measurement.notes: pharmacokinetic study of five major components after oral administration of BZD (HPLC-QQQ MS)
Type: in vivo, Sprague–Dawley (SD) rats
applied.conditions: Sprague-Dawley, rat, systemic plasma, po, 15 g/kg; rats, oral BZD 15 g/kg, n = 5
recorded.endpoint: half-life (h)
Expressed in h, but write only the number.

For the compound `C[C@H]1CC[C@@]2(OC1)O[C@H]1C[C@H]3[C@@H]4CC[C@@H]5C[C@@H](O[C@@H]6O[C@H](CO)[C@H](O)[C@H](O)[C@H]6O[C@@H]6O[C@H](CO)[C@@H](O)[C@H](O)[C@H]6O)CC[C@]5(C)[C@H]4CC[C@]3(C)[C@H]1[C@@H]2C` , give its reported half-life.
11.2

# evaluate next
Report half-life for `C[C@@H](CC[C@@]1(O)O[C@H]2C[C@H]3[C@@H]4CC[C@@H]5C[C@@H](O[C@@H]6O[C@H](CO)[C@H](O)[C@H](O)[C@H]6O[C@@H]6O[C@H](CO)[C@@H](O)[C@H](O)[C@H]6O)CC[C@]5(C)[C@H]4CC[C@]3(C)[C@H]2[C@@H]1C)CO[C@@H]1O[C@H](CO)[C@@H](O)[C@H](O)[C@H]1O`
35.8

###

measurement.notes: pharmacokinetic study of five major components after oral administration of BZD (HPLC-QQQ MS)
Type: in vivo, Sprague–Dawley (SD) rats
applied.conditions: Sprague-Dawley, rat, hippocampus, po, 15 g/kg, hippocampus; rats, oral BZD 15 g/kg, n = 5; read-out: Cmax
recorded.endpoint: Cmax (ng/g)
I only need the number, in ng/g, no unit after it.

Provide Cmax value for the following molecule: C[C@@H](CC[C@@]1(O)O[C@H]2C[C@H]3[C@@H]4CC[C@@H]5C[C@@H](O[C@@H]6O[C@H](CO)[C@H](O)[C@H](O)[C@H]6O[C@@H]6O[C@H](CO)[C@@H](O)[C@H](O)[C@H]6O)CC[C@]5(C)[C@H]4CC[C@]3(C)[C@H]2[C@@H]1C)CO[C@@H]1O[C@H](CO)[C@@H](O)[C@H](O)[C@H]1O [Timosaponin BII, timosaponin BII]
372

###

Cmax: recorded values
measurement.notes: pharmacokinetic study of five major components after oral administration of BZD (HPLC-QQQ MS)
Assay type: in vivo, Sprague–Dawley (SD) rats
applied.conditions: Sprague-Dawley, rat, liver, po, 15 g/kg, liver; rats, oral BZD 15 g/kg, n = 5; read-out: Cmax
Number only, in ng/g; omit the unit.

Return value of Cmax for input `C[C@@H](CC[C@@]1(O)O[C@H]2C[C@H]3[C@@H]4CC[C@@H]5C[C@@H](O[C@@H]6O[C@H](CO)[C@H](O)[C@H](O)[C@H]6O[C@@H]6O[C@H](CO)[C@@H](O)[C@H](O)[C@H]6O)CC[C@]5(C)[C@H]4CC[C@]3(C)[C@H]2[C@@H]1C)CO[C@@H]1O[C@H](CO)[C@@H](O)[C@H](O)[C@H]1O` , no commentary.
302

# ---- query compound ----
Please supply the value of reported Cmax for the item `C[C@H]1CC[C@@]2(OC1)O[C@H]1C[C@H]3[C@@H]4CC[C@@H]5C[C@@H](O[C@@H]6O[C@H](CO)[C@H](O)[C@H](O)[C@H]6O[C@@H]6O[C@H](CO)[C@@H](O)[C@H](O)[C@H]6O)CC[C@]5(C)[C@H]4CC[C@]3(C)[C@H]1[C@@H]2C`
9360

###

measurement.notes: pharmacokinetic study of five major components after oral administration of BZD (HPLC-QQQ MS)
Type: in vivo, Sprague–Dawley (SD) rats
applied.conditions: Sprague-Dawley, rat, hippocampus, po, 15 g/kg, hippocampus; rats, oral BZD 15 g/kg, n = 5; read-out: Tmax
recorded.endpoint: Tmax (h)
State the answer as a number, implicitly in h.

Return the recorded Tmax value; entry: `C[C@@H](CC[C@@]1(O)O[C@H]2C[C@H]3[C@@H]4CC[C@@H]5C[C@@H](O[C@@H]6O[C@H](CO)[C@H](O)[C@H](O)[C@H]6O[C@@H]6O[C@H](CO)[C@@H](O)[C@H](O)[C@H]6O)CC[C@]5(C)[C@H]4CC[C@]3(C)[C@H]2[C@@H]1C)CO[C@@H]1O[C@H](CO)[C@@H](O)[C@H](O)[C@H]1O`
10

###

measurement.notes: pharmacokinetic study of five major components after oral administration of BZD (HPLC-QQQ MS)
Format: in vivo, Sprague–Dawley (SD) rats
applied.conditions: Sprague-Dawley, rat, liver, po, 15 g/kg, liver; rats, oral BZD 15 g/kg, n = 5; read-out: Tmax
recorded.endpoint: Tmax (h)
// return numeric value only (unit: h, not printed)

# return recorded Tmax for entry `C[C@H]1CC[C@@]2(OC1)O[C@H]1C[C@H]3[C@@H]4CC[C@@H]5C[C@@H](O[C@@H]6O[C@H](CO)[C@H](O)[C@H](O)[C@H]6O[C@@H]6O[C@H](CO)[C@@H](O)[C@H](O)[C@H]6O)CC[C@]5(C)[C@H]4CC[C@]3(C)[C@H]1[C@@H]2C`
20

# evaluate next
Identify measured Tmax corresponding to `C[C@@H](CC[C@@]1(O)O[C@H]2C[C@H]3[C@@H]4CC[C@@H]5C[C@@H](O[C@@H]6O[C@H](CO)[C@H](O)[C@H](O)[C@H]6O[C@@H]6O[C@H](CO)[C@@H](O)[C@H](O)[C@H]6O)CC[C@]5(C)[C@H]4CC[C@]3(C)[C@H]2[C@@H]1C)CO[C@@H]1O[C@H](CO)[C@@H](O)[C@H](O)[C@H]1O`
0.08

###

measurement.notes: pharmacokinetic study of five major components after oral administration of BZD (HPLC-QQQ MS)
Format: in vivo, Sprague–Dawley (SD) rats
applied.conditions: Sprague-Dawley, rat, systemic plasma, po, 15 g/kg, systemic plasma; rats, oral BZD 15 g/kg, n = 5; read-out: Cmax
recorded.endpoint: Cmax (ng/mL)
Expressed in ng/mL, but write only the number.

Check the records and state Cmax for `C[C@H]1CC[C@@]2(OC1)O[C@H]1C[C@H]3[C@@H]4CC[C@@H]5C[C@@H](O[C@@H]6O[C@H](CO)[C@H](O)[C@H](O)[C@H]6O[C@@H]6O[C@H](CO)[C@@H](O)[C@H](O)[C@H]6O)CC[C@]5(C)[C@H]4CC[C@]3(C)[C@H]1[C@@H]2C`
16

Next:
Consider the compound `C[C@@H](CC[C@@]1(O)O[C@H]2C[C@H]3[C@@H]4CC[C@@H]5C[C@@H](O[C@@H]6O[C@H](CO)[C@H](O)[C@H](O)[C@H]6O[C@@H]6O[C@H](CO)[C@@H](O)[C@H](O)[C@H]6O)CC[C@]5(C)[C@H]4CC[C@]3(C)[C@H]2[C@@H]1C)CO[C@@H]1O[C@H](CO)[C@@H](O)[C@H](O)[C@H]1O` and give its recorded Cmax.
277

###

This listing pairs compounds with measured Cmax.
measurement.notes: pharmacokinetic study of five major components after oral administration of BZD (HPLC-QQQ MS)
Assay type: in vivo, Sprague–Dawley (SD) rats
applied.conditions: Sprague-Dawley, rat, hepatic portal vein plasma, po, 15 g/kg, portal vein plasma; rats, oral BZD 15 g/kg, n = 5; read-out: Cmax
Write it as a number; the unit ng/mL goes unstated.

Supply recorded Cmax for `C[C@H]1CC[C@@]2(OC1)O[C@H]1C[C@H]3[C@@H]4CC[C@@H]5C[C@@H](O[C@@H]6O[C@H](CO)[C@H](O)[C@H](O)[C@H]6O[C@@H]6O[C@H](CO)[C@@H](O)[C@H](O)[C@H]6O)CC[C@]5(C)[C@H]4CC[C@]3(C)[C@H]1[C@@H]2C` here.
61.8

Continuing:
Consider the compound `C[C@@H](CC[C@@]1(O)O[C@H]2C[C@H]3[C@@H]4CC[C@@H]5C[C@@H](O[C@@H]6O[C@H](CO)[C@H](O)[C@H](O)[C@H]6O[C@@H]6O[C@H](CO)[C@@H](O)[C@H](O)[C@H]6O)CC[C@]5(C)[C@H]4CC[C@]3(C)[C@H]2[C@@H]1C)CO[C@@H]1O[C@H](CO)[C@@H](O)[C@H](O)[C@H]1O` and give its recorded Cmax.
880

###

measurement.notes: pharmacokinetic study of five major components after oral administration of BZD (HPLC-QQQ MS)
Assay type: in vivo, Sprague–Dawley (SD) rats
applied.conditions: Sprague-Dawley, rat, hippocampus, po, 15 g/kg; rats, oral BZD 15 g/kg, n = 5
recorded.endpoint: half-life (h)
Output spec: scalar in h, unitless text.

Give reported half-life value for C[C@@H](CC[C@@]1(O)O[C@H]2C[C@H]3[C@@H]4CC[C@@H]5C[C@@H](O[C@@H]6O[C@H](CO)[C@H](O)[C@H](O)[C@H]6O[C@@H]6O[C@H](CO)[C@@H](O)[C@H](O)[C@H]6O)CC[C@]5(C)[C@H]4CC[C@]3(C)[C@H]2[C@@H]1C)CO[C@@H]1O[C@H](CO)[C@@H](O)[C@H](O)[C@H]1O [Timosaponin BII, timosaponin BII]
27.4
